// data source = patent US10611751B2

test: Plasma and Brain Levels after oral dosing; format: in vivo; details: male, mouse, plasma, oral, 1 mg/kg, 1 mg/kg oral, fed, read-out: Cu, plasma
property: concentration at 1.5 h
Answers without a unit are incomplete; give the number and then its unit.

Q: Supply reported concentration at 1.5 h belonging to this molecule: `C[C@H]1c2cccc(-c3cnn(C)c3)c2C[C@H](CO)N1C(=O)Cc1c(Cl)cccc1Cl`
Result: 0.182 nM

====

experiment: Fraction unbound in plasma and brain, determined in vitro (equilibrium dialysis); format: in vitro ADME; conditions: fraction unbound in plasma, read-out: fu, plasma
Record form. Attribute: fraction unbound. Fill in for each entry.
Please give the numeric answer without any surrounding text.

Q: Supply reported fraction unbound belonging to this molecule: C[C@H]1c2cccc(-c3cn[nH]c3)c2C[C@H](CO)N1C(=O)Cc1c(Cl)cccc1Cl [Example 8]
Result: 0.031

Q: Supply reported fraction unbound belonging to this molecule: C[C@H]1c2cccc(-c3cnn(C)c3)c2C[C@H](CO)N1C(=O)Cc1c(Cl)cccc1Cl [Example 1]
Result: 0.027

====

experiment: Plasma and Brain Levels after oral dosing; assay type: in vivo; settings: male, mouse, brain, oral, 60 mg/kg, 60 mg/kg oral, fed, 1.5 hr, read-out: Brain con.
property: concentration at 1 h (µM)
Quick note: give the figure in µM, leave out the unit.

Q: Supply reported concentration at 1 h belonging to this compound: `C[C@H]1c2cccc(-c3cn[nH]c3)c2C[C@H](CO)N1C(=O)Cc1c(Cl)cccc1Cl`
Result: 5

====

experiment: Plasma and Brain Levels after oral dosing; type: in vivo; conditions: male, mouse, brain, oral, 6 mg/kg, 6 mg/kg oral, fed, read-out: Brain con.
property: concentration at 1.5 h (nM)
Quick note: give the figure in nM, leave out the unit.

Q: Supply reported concentration at 1.5 h belonging to this compound: `C[C@H]1c2cccc(-c3cnn(C)c3)c2C[C@H](CO)N1C(=O)Cc1c(Cl)cccc1Cl`
Result: 129
